# tested.target: T1, His-tagged CEACAM1 (human, UniProt P13688 35-428)
# T1 construct: 45 kDa SPR analyte; also called CEACAM1-HIS; CEACAM1 analyte
# T1 sequence: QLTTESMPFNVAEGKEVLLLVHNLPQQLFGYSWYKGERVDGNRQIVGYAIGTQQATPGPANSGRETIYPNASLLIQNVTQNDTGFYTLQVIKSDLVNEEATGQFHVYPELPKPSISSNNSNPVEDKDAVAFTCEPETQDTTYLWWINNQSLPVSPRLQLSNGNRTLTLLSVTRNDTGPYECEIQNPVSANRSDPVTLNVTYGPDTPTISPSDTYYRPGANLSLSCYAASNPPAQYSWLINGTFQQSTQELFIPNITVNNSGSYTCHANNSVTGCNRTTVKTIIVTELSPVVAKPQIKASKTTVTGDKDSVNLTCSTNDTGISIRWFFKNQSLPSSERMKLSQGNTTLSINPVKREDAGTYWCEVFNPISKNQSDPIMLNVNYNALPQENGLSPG
# protocol.text: SPR single-cycle, supernatant IgG captured
parameter.measured: Kd (nM)
Provide the reading as a plain figure in nM.

Name the recorded Kd for CP09B03/CP08F05 (antibody, IgG4, V domains shown, IgG4 (S241P), kappa) VH: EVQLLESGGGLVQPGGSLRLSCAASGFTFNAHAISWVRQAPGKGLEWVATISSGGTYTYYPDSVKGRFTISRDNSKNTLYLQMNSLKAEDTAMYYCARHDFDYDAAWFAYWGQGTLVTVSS VL: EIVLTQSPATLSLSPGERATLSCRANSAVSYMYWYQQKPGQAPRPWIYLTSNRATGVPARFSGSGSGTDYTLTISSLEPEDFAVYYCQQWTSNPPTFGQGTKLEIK .
150

Now the same for CP08H03/CP08E05 (antibody, IgG4, V domains shown, IgG4 (S241P), kappa) VH: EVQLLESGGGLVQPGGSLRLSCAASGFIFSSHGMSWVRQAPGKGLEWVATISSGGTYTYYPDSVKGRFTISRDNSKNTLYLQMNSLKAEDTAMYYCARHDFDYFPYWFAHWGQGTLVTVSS VL: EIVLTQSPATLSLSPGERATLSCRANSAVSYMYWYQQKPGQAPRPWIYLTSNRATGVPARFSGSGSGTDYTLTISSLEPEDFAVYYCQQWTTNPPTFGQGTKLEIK
120

Now the same for CP09C02/CP08G09 (antibody, IgG4, V domains shown, IgG4 (S241P), kappa) VH: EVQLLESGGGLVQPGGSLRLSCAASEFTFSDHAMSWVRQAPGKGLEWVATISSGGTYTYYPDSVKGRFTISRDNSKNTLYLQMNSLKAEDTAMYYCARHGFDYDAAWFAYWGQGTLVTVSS VL: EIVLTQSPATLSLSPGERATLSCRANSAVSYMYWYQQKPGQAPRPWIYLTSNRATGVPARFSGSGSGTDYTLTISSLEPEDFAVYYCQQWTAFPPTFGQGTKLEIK
140
